hCB2R % displacement at 10 µM: recorded values
# Assayed system: human CB2R (Homo sapiens)
# Construct: host or cells: CHO-K1 (CHOK1hCB2_bgal)
# Sequence (P34972 whole entry): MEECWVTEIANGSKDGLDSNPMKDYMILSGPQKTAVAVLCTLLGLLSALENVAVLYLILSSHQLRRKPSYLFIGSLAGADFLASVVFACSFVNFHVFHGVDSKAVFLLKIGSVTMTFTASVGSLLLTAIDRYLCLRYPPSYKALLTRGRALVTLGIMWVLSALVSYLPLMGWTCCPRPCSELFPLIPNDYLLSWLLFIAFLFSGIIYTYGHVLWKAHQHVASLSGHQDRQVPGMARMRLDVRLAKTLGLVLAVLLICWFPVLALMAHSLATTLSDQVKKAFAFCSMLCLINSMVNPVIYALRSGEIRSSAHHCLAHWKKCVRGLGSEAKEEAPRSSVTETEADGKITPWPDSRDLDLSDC
# Assay details: [3H]CP55,940 displacement assay on CHO membranes, CB2R
# Format: binding
# Recorded conditions: [3H]CP55,940 displacement at 10 µM compound, ± SEM

# Compound, Output unit, hCB2R % displacement at 10 µM
measured = [
    ("CCC(CC)(NC(=O)c1cc(-c2cc(C(F)(F)F)ccc2C(F)(F)F)n(C[C@H]2CCCO2)c1C)C(=O)NCCOCCOCCOCCNC(=O)OC(C)(C)C [Compound 22c]", "%", 23),
    ("CCC(CC)(NC(=O)c1cc(-c2cc(C(F)(F)F)ccc2C(F)(F)F)n(C[C@H]2CCCO2)c1C)C(=O)NCCOCCOCCNC(=O)c1ccc2c(c1)C(=O)OC21c2ccc(N(C)C)cc2Oc2cc(N(C)C)ccc21", "%", 18),
    ("CCC(CC)(NC(=O)c1cc(-c2cc(C(F)(F)F)ccc2C(F)(F)F)n(C[C@H]2CCCO2)c1C)C(=O)NCCOCCOCCNC(=O)OC(C)(C)C [Compound 22b]", "%", 22),
    ("CCC(CC)(NC(=O)c1nn(-c2ccc(Cl)cc2Cl)c(-c2ccc(Cl)cc2)c1C)C(=O)NCCOCCOCCNc1ccc([N+](=O)[O-])c2nonc12", "%", 49),
    ("CCC(CC)(NC(=O)c1nn(-c2ccc(Cl)cc2Cl)c(-c2ccc(Cl)cc2)c1C)C(=O)NCCOCCOCCNC(=O)c1ccc2c(c1)C(=O)OC21c2ccc(N(C)C)cc2Oc2cc(N(C)C)ccc21", "%", 32),
]
